The values you see were collected from BindingDB's records for doi:10.7270/Q2NC5ZS3.

target-or-system: Corticotropin-releasing factor-binding protein (Homo sapiens, UniProt P24387)
Sequence (P24387 whole entry): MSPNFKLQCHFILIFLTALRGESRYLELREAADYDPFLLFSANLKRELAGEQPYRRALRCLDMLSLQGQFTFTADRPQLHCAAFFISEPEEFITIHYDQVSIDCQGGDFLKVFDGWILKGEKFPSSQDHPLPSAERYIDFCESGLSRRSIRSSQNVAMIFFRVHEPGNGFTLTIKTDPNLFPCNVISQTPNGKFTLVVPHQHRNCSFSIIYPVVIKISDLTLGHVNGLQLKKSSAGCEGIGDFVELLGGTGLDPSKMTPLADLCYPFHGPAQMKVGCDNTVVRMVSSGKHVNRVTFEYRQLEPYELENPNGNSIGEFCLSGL
readout: IC50 (µM)
Unit µM implied. Number only.

Cc1ccc2nc(N3C(=O)C(=O)C(C(=O)c4ccc(C)o4)C3c3cccc(O)c3)sc2c1 (stereo not given)	10.4
Cn1c(O)c(N=Nc2ccc([N+](=O)[O-])cc2)sc1=S [MLS002608645]	1
COc1ccc(C(C)N=Nc2ccc([N+](=O)[O-])cc2S(=O)(=O)Nc2ccccc2C(=O)O)c(OC)c1 (stereo not given) [MLS002249507]	9.4

Query string: Form entry - test system: Corticotropin-releasing factor-binding protein (Homo sapiens, UniProt P24387); read-out: IC50; compound: Cc1ccc(-n2[nH]c(C)c(CN=Nc3ccc([N+](=O)[O-])cc3[N+](=O)[O-])c2=O)cc1 [SMR000171521]
Result string: 15.5

Query string: Can you look up IC50 on Corticotropin-releasing factor-binding protein (Homo sapiens, UniProt P24387) for N#CC(C(=O)Cc1cccc2ccccc12)c1nc2ccccc2s1 (stereo not given) ?
Result string: 11.3
